Across several publications, the following pIC50 results were reported for human LTA4 hydrolase (Homo sapiens).
pIC50: −log10 of the molar value.

| molecule | pIC50 |
| --- | --- |
| NC(=O)NC1CCN(Cc2ccc(C3COc4ccccc4O3)cc2)CC1 (racemic) | 9.38 |
| CC(=O)N1CC(CN(C)Cc2ccc3cc(Oc4ccc(-c5ccn[nH]5)cn4)ccc3n2)C1 | 9.01 |
| O=C(CO)N1CCCN(Cc2ccc3cc(Oc4ccc(-c5ccn[nH]5)cn4)ccc3n2)CC1 | 9.03 |
| O[C@H]1CCN(Cc2ccc3cc(Oc4ncc(-c5ccn[nH]5)cn4)ccc3c2)C1 | 8.60 |
| CN(Cc1nc2cc(Oc3ccc(-c4ccn[nH]4)cc3)ccc2[nH]1)C[C@H]1CCCO1 | 9.57 |
| O=C(O)C1CCN(Cc2cn3cc(Oc4ccc(-c5ccn[nH]5)cc4)ccc3n2)CC1 | 9.92 |
| COCCN(Cc1nc2cc(Oc3ccc(-c4ccn[nH]4)cc3)ccc2[nH]1)C(C)C | 9.77 |
| CC[C@@H](C)N(C)Cc1nc2cc(Oc3ccc(-c4ccn[nH]4)cc3)ccc2[nH]1 | 10.05 |
| CC(Cc1ccccc1)Oc1ccc(Oc2ccc(-c3ccn[nH]3)cc2)cc1 (stereo not shown) | 6.05 |
| CN(C)C(=O)C1CCN(CC2Cc3ccc(Oc4ccc(-c5ccn[nH]5)cc4)cc3O2)CC1 (stereo not shown) | 9.34 |
| c1cc(-c2ccc(Oc3ccc(OCc4cscn4)cc3)cc2)[nH]n1 | 8.48 |
| CO[C@@H](C)C(=O)N1CCN(CCc2coc3cc(Oc4ccc(-c5ccn[nH]5)cn4)ccc23)CC1 | 9.06 |
| CC[C@H](C)NCc1nc2cc(Oc3ccc(-c4ccn[nH]4)cc3)ccc2[nH]1 | 9.85 |
| CC(=O)N1CCN(Cc2cc3cc(Oc4ccc(-c5ccn[nH]5)cn4)ccc3cn2)CC1 | 9.03 |
| CC[C@H](CC#N)NCc1ccc2cc(Oc3ccc(-c4ccn[nH]4)cn3)ccc2n1 | 8.57 |
| c1cc(-c2ccc(Oc3ccc4[nH]c(CN5CCCCCC5)nc4c3)cc2)[nH]n1 | 10.19 |

* * *

Reported IC50 on UniProt:P09960 for assorted compounds, compiled from publications.
Label scheme for IC50: zone 1: < 0.4 nM; zone 2: ≥ 0.4 nM and < 1 nM; zone 3: ≥ 1 nM

| compound | assignedCategory |
| --- | --- |
| COCC(=O)NC1CCN(Cc2ccc3cc(Oc4ccc(-c5cc[nH]n5)cn4)ccc3n2)CC1 | zone 2 |
| CC(=O)N1CCN(Cc2cnc3cc(Oc4ccc(-c5ccn[nH]5)cn4)ccc3c2)CC1 | zone 2 |
| O=C(O)c1ccc(C2CCN(Cc3ccc4c(ccn4Cc4ccc(-c5ccn[nH]5)cc4)c3)CC2)cc1 | zone 1 |
| O=C1CC[C@@H](Oc2ccc(Oc3ccc(-c4cc[nH]n4)cc3)cc2)CN1 | zone 1 |
| O=C1CCCN1C1CCN(CCC2COc3cc(Oc4ccc(-c5ccn[nH]5)cn4)ccc32)CC1 (stereo not drawn) | zone 3 |
| O[C@H]1CCN(Cc2ccc(C3COc4ccccc4O3)cc2)C1 (mixture of isomers) | zone 3 |
| c1ccc2c(c1)ncn2CCOc1ccc(Oc2ccc(-c3ccn[nH]3)cc2)cc1 | zone 3 |
| CC(=O)N(C)C1CCN(Cc2ccc3cc(Oc4ccc(-c5ccn[nH]5)cn4)ccc3n2)CC1 | zone 2 |
| c1cc(-c2ccc(Oc3ccc4nc(CN5CCOCC5)ccc4c3)cc2)[nH]n1 | zone 2 |
| c1cc(-c2ccc(Oc3ccc(OCc4cnc5cc[nH]c5c4)cc3)cc2)[nH]n1 | zone 3 |
| c1cc(-c2ccc(Oc3ccc4nc(CN5CCCC5)ccc4c3)cc2)[nH]n1 | zone 1 |
| CS(=O)(=O)NC1CCN(CCc2coc3cc(Oc4ccc(-c5ccn[nH]5)cn4)ccc23)CC1 | zone 1 |
| c1ccc2c(c1)OCC(c1ccc(CN3CCCOCC3)cc1)O2 (stereo not drawn) | zone 3 |
| c1cc(-c2ccc(Oc3ccc4nn(CCCN5CCOCC5)cc4c3)cc2)[nH]n1 | zone 1 |
| NC(=O)C1CN(Cc2ccc3cc(Oc4ccc(-c5ccn[nH]5)cn4)ccc3c2)C1 | zone 2 |
| O=c1cccc2n1C[C@H]1C[C@@H]2CN(Cc2ccc3cc(Oc4ccc(-c5ccn[nH]5)cn4)ccc3n2)C1 | zone 2 |
| COCC(=O)NC1CCN(CC2Cc3ccc(Oc4ccc(-c5ccn[nH]5)cc4)cc3O2)CC1 (stereo not drawn) | zone 1 |
| O=C(N1CCN(Cc2ccc3cc(Oc4ccc(-c5ccn[nH]5)cn4)ccc3n2)CC1)C1(CO)CC1 | zone 3 |
| CC(=O)N1CCCN(Cc2coc3cc(Oc4ccc(-c5ccn[nH]5)cn4)ccc23)CC1 | zone 2 |
| CN1CCC2(CCN(Cc3coc4cc(Oc5ccc(-c6ccn[nH]6)cn5)ccc34)CC2)C1=O | zone 1 |
| O=C(N1CCN(Cc2cn3cc(Oc4ccc(-c5ccn[nH]5)cc4)ccc3n2)CC1)C1(O)CC1 | zone 3 |
| O=C1OCCN1C1CCN(CCc2coc3cc(Oc4ccc(-c5ccn[nH]5)cn4)ccc23)CC1 | zone 1 |
| OC1CCN(Cc2ccc3cc(Oc4ncc(-c5ccn[nH]5)cn4)ccc3c2)CC1 | zone 3 |
| c1cc(-c2ccc(Oc3ccc(OCC4CCCCO4)cc3)cc2)[nH]n1 (stereo not drawn) | zone 3 |
| O=C1CCC(c2cn3cc(Oc4ccc(-c5ccn[nH]5)cc4)ccc3n2)CN1 (stereo not drawn) | zone 3 |
| CN(C(=O)CO)C1CCN(Cc2ccc3cc(Oc4ncc(-c5ccn[nH]5)cn4)ccc3c2)CC1 | zone 3 |
| CN(C(=O)CO)[C@@H]1CCN(Cc2cnc3cc(Oc4ccc(-c5ccn[nH]5)cn4)ccc3c2)C1 | zone 3 |
| c1cc(-c2ccc(Oc3ccc(OC4CCCOC4)cc3)cc2)[nH]n1 (stereo not drawn) | zone 3 |
| C[C@H](O)CC(=O)N1CCN(Cc2ccc3cc(Oc4ccc(-c5ccn[nH]5)cn4)ccc3n2)CC1 | zone 3 |
| CCN(CC)Cc1nc2cc(Oc3ccc(-c4ccn[nH]4)cc3)ccc2[nH]1 | zone 1 |
| CN(Cc1nc2cc(Oc3ccc(-c4ccn[nH]4)cc3)ccc2[nH]1)CC1CCCOC1 (stereo not drawn) | zone 1 |
| NC(=O)[C@@H](NCc1ccc2cc(Oc3ccc(-c4ccn[nH]4)cn3)ccc2n1)c1ccccc1 | zone 3 |
| OC1CN(Cc2ccc3cc(Oc4ccc(-c5ccn[nH]5)cn4)ccc3c2)C1 | zone 2 |
